Entries and their pIC50
# System: forty-four human cancer cell lines
# Experimental protocol: Cell proliferation assay (ATPlite, 72 hours) in the 44 cell line Oncolines panel
# Format: cell-based
# Test parameters: Homo sapiens, 4-4 cell, read-out: cell panel IC50, SJCRH30
pIC50: −log10 of the molar value.
Endpoint label: pIC50

Molecule | Assayed target | Censoring qualifier | Measurement
CNC(=O)c1cc(Oc2ccc(NC(=O)Nc3ccc(Cl)c(C(F)(F)F)c3)cc2)ccn1 | forty-four human cancer cell lines | = | 4.92
COc1cc2c(Nc3ccc(Br)cc3F)ncnc2cc1OCC1CCN(C)CC1 | forty-four human cancer cell lines | = | 5.40
COc1cc2nccc(Oc3ccc(NC(=O)C4(C(=O)Nc5ccc(F)cc5)CC4)cc3)c2cc1OC [cabozantinib] | forty-four human cancer cell lines | = | 4.82
C#Cc1cccc(Nc2ncnc3cc(OCCOC)c(OCCOC)cc23)c1 | forty-four human cancer cell lines | < | 4.50
CS(=O)(=O)CCNCc1ccc(-c2ccc3ncnc(Nc4ccc(OCc5cccc(F)c5)c(Cl)c4)c3c2)o1 | forty-four human cancer cell lines | = | 4.91
